These entries and their values trace back to ChEMBL document CHEMBL2021834.

Observed IC50 for Voltage-gated inwardly rectifying potassium channel KCNH2 (Homo sapiens), reported per entry below.

sample.smiles	IC50
CCOC(=O)C1CCN(CCCOc2ccc(S(N)(=O)=O)cc2)CC1	76.5 µM

Entry under test: O=C(Nc1cc(Cl)ccc1Cl)NS(=O)(=O)c1ccc(OCCCCN2CCCCC2)cc1 . Its IC50 was > 100 µM

Short answer for O=C(Nc1ccccc1C(F)(F)F)NS(=O)(=O)c1ccc(OCCCN2CCCCC2)cc1 : IC50 was > 100 µM

====

Consider the following IC50 values measured on Voltage-gated inwardly rectifying potassium channel KCNH2 (Homo sapiens, UniProt Q12809).
Sequence (Q12809 whole entry): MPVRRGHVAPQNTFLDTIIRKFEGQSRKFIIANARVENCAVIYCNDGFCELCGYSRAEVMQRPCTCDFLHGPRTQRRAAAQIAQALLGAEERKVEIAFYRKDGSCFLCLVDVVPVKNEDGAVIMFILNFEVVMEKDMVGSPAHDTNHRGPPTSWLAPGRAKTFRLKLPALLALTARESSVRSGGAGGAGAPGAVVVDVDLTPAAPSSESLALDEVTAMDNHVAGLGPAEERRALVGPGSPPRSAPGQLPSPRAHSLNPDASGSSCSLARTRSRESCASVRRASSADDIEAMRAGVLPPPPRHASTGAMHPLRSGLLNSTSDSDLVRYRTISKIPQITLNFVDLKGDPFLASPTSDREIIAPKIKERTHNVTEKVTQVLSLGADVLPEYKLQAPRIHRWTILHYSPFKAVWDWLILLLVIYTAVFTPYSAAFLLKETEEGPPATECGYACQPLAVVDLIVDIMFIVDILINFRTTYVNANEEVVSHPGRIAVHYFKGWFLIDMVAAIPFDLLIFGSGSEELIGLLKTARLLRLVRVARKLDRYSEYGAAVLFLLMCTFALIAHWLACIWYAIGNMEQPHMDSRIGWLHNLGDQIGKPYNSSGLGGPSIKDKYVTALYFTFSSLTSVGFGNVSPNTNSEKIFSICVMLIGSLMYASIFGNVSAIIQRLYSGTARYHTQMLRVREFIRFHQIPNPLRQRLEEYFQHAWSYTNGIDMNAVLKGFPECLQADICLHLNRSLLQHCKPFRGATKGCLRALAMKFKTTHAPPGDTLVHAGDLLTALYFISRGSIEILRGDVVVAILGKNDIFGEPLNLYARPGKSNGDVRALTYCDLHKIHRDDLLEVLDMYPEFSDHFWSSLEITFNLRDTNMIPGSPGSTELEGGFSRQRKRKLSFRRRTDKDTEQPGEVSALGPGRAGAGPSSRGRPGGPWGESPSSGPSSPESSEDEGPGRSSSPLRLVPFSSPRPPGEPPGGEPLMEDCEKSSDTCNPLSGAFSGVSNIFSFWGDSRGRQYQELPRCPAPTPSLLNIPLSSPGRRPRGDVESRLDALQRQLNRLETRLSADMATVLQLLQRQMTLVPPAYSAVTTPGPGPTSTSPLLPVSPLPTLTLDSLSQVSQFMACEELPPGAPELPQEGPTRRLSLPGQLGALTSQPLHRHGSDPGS

The cases that follow already have their IC50 on record.
sample.smiles	measured.result
CCOC(=O)C1CCN(CCCCOc2ccc(S(N)(=O)=O)cc2)CC1	18.8 µM
CCOC(=O)C1CCN(CCOc2ccc(S(=O)(=O)NC(=O)Nc3ccccc3)cc2)CC1	> 100 µM
COc1ccc(NC(=O)NS(=O)(=O)c2ccc(OCCCN3CCCCC3)cc2)cc1	> 100 µM

Please turn your attention to the following entry.
The compound O=C(Nc1cccc2ccccc12)NS(=O)(=O)c1ccc(OCCCN2CCCC2)cc1 on Voltage-gated inwardly rectifying potassium channel KCNH2 (Homo sapiens, UniProt Q12809): IC50 was > 100 µM
